The values you see were collected from paper PMC12951562.

Target: PLCG2(SH2dom.C-term.) (Homo sapiens, UniProt P16885)
Construct: SH2dom.C-term. denotes SH2 domain closest to C-terminus of protein; made in house; host or cells: HEK293 (transient transfection, unpurified extract)
Sequence (P16885 646-735 limits assumed): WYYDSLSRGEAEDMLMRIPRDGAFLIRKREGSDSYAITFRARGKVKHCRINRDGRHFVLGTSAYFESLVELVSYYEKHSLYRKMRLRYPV
Experiment: biochemical
Assay type: binding
Conditions: dose-response; read-out: KD
recorded.metric: Kd (µM)

C/C(=C\C(=O)N[C@H](C(=O)N1CCC[C@H]1C(=O)N(c1ccccc1)c1ccc(I)cc1)C(C)(C)C)c1ccc(OP(=O)(O)O)cc1    3.8

====

percent of DMSO vehicle control for assorted molecules
target: CSK (Homo sapiens, UniProt P41240); construct: the DNA-tagged SH2 domain concentrations used in this study were <0.1 nM; made in house; host or cells: HEK293 (transient transfection; unpurified extract); experiment: biochemical; assay type: binding; settings: primary screen, 10 μM
Sequence (P41240 82-171 limits assumed): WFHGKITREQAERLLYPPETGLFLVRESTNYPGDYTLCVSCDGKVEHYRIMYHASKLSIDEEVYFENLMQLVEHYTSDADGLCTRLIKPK
Non-standard residues stand in square brackets, D forms with d. Residues, ends and D or L forms follow the SMILES beside them. *: point of attachment. pY = N[C@@H](Cc1ccc(OP(=O)(O)O)cc1)C(=O)O; Caffeoyl = O=C(/C=C/c1ccc(O)c(O)c1)*
recorded.metric: percent of DMSO vehicle control (%)

CC[C@H](C)[C@H](NC(=O)[C@H](CCC(=O)O)NC(=O)[C@H](CCC(=O)O)NC(=O)[C@H](Cc1ccc(OP(=O)(O)O)cc1)NC(=O)/C=C/c1ccc(O)c(O)c1)C(=O)N[C@@H](CCC(=O)O)C(=O)O [Caffeic acid-pYEEIE] (Caffeoyl-[pY]EEIE-OH)    103.0
CC(C)(C)[C@H](NC(=O)/C=C/c1ccc(OP(=O)(O)O)cc1)C(=O)N1CCC[C@H]1C(=O)N(c1ccccc1)c1ccc(I)cc1    65.2
CC(=O)N[C@@H](Cc1ccc(CP(=O)(O)O)cc1)C(=O)NC1(C(=O)N[C@@H](CC(N)=O)C(=O)NCCCc2c(O)ccc3ccccc23)CCCCC1    119.6
CC[C@H](C)[C@H](NC(=O)[C@H](CCC(=O)O)NC(=O)[C@H](CCC(=O)O)NC(=O)[C@H](Cc1ccc(OP(=O)(O)O)cc1)NC(C)=O)C(=O)N[C@@H](CCC(=O)O)C(N)=O [Ac-pYEEIE-NH2] (Ac-[pY]EEIE-NH2)    106.4
NC(=O)CC[C@H](NC(=O)[C@@H]1CC[C@@H]2CCN(C(=O)CCCCCC#Cc3cccc4c3CN(C3CCC(=O)NC3=O)C4=O)C[C@H](NC(=O)c3cc4cc(C(F)(F)P(=O)(O)O)ccc4[nH]3)C(=O)N21)C(=O)NC(c1ccccc1)c1ccccc1 (stereo partly drawn)    97.3
O=C(COc1ccc2cc(C(=O)Nc3ccccc3)ccc2c1)NCc1ccc(OP(=O)(O)O)c(OP(=O)(O)O)c1    111.7
C/C(=C\C(=O)N[C@H](C(=O)N1CCC[C@H]1C(=O)N(c1ccccc1)c1ccc(I)cc1)C(C)(C)C)c1ccc(OP(=O)(O)O)cc1    26.3
O=C(CCl)Nc1cccc(CNC(=O)[C@H](Cc2ccc(OP(=O)(O)O)cc2)NC(=O)Cc2ccc(F)cc2)c1    105.0
CC(=O)N1CC[C@H]2CC[C@@H](C(=O)N[C@@H](CCC(N)=O)C(=O)NC(c3ccccc3)c3ccccc3)N2C(=O)[C@@H](NC(=O)c2cc3cc(C(F)(F)P(=O)(O)O)ccc3[nH]2)C1    121.2
